- System under test: T1, SH2 domain of Abl2 (recombinant, on protein microarray) (human, UniProt P42684 173-263)
- T1 construct: Abl2, human, SH2 domain
- T1 sequence (looked up): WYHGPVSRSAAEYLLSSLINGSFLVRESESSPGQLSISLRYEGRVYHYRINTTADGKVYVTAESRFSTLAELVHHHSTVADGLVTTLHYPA
- Method: peptide or protein array; recombinant human SH2 and PTB domains spotted on protein microarrays; probed in duplicate with eight concentrations of fluorescently labeled peptide, 10 nM to 5 µM; fluorescence fit to a saturation binding equation
- Conditions used: both partners purified
pKd: −log10 of the molar value. Where no end group is shown, it is not given here. [ ]: non-standard residue; d: D form. pY = N[C@@H](Cc1ccc(OP(=O)(O)O)cc1)C(=O)O
Quantity name: pKd

Sample KYVDSEGHL[pY]TVPIREQG (peptide, UniProt Q03135 5-22, looked up, also: fluorescent label (position not given here), caveolin-1 (Cav1), human, residues 5-22; also called Tyr14-Cav1 phosphopeptide (18 amino acids); source: synthetic peptide, purified to >95% by preparative reverse phase HPLC) [fluorescently labeled Tyr14-Cav1 phosphopeptide (residues 5-22 of Cav1, phosphorylated on Tyr14)] ; pKd observed: > 5.70
